The entries below are paired with their reported Relative activity with respect to Compound A.
# measurement target: human CaSR (Homo sapiens, UniProt P41180)
# Construct: TT cells are cell lines that express human CaSR; endogenous in cells; host or cells: TT cells (human medullary thyroid carcinoma cell line)
# Sequence (P41180 20-1078): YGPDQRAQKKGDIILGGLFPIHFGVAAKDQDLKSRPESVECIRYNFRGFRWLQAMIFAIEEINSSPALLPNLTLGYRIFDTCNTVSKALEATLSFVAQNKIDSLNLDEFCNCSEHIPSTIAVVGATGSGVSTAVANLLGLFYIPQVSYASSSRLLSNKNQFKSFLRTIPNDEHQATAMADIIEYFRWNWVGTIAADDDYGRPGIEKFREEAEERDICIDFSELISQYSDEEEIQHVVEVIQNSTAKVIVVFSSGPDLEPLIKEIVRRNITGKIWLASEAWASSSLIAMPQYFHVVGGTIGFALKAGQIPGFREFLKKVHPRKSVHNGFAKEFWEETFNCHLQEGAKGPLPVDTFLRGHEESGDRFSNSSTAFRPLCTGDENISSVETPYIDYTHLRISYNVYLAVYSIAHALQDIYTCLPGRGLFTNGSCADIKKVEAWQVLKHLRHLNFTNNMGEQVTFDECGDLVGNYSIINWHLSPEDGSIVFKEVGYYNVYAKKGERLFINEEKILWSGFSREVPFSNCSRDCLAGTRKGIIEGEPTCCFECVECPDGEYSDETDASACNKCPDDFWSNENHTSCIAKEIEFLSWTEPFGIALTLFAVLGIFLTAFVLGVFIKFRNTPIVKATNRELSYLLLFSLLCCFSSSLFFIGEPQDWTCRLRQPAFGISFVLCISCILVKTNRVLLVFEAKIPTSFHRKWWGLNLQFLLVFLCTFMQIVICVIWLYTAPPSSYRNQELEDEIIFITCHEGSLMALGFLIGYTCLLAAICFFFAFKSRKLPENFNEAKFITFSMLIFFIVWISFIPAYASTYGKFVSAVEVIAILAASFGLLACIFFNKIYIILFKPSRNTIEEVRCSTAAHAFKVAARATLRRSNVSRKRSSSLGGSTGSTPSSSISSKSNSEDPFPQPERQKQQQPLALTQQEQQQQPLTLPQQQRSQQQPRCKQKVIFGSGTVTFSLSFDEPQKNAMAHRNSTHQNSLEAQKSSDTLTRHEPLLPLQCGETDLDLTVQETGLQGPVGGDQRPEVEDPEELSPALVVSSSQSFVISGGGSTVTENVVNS
# procedure details: Human CaSR activity measurement test (intracellular calcium in TT cells)
# Format: cell-based
# applied conditions: [EC50 of test compound]/[EC50 of Compound A], intracellular calcium fluorescence
Structures can show the parent of a compound that is named as a salt.
result type: Relative activity with respect to Compound A

C[C@@H](N[C@H]1CC[C@@H](c2cccc(CC(=O)O)c2)C1)c1cccc2ccccc12 [Example 7, hydrochloride] ... 0.26
C[C@@H](N[C@H]1CC[C@@H](c2ccc(CCC(=O)O)cc2)C1)c1ccc(F)c2ccccc12 [Example 27, hydrochloride] ... 0.59
C[C@@H](N[C@H]1CC[C@@H](c2cccc(OCC(=O)O)c2)C1)c1cccc2ccccc12 [Example 12, hydrochloride] ... 0.36
C[C@@H](N[C@H]1CC[C@@H](c2ccc(OC(C)(C)C(=O)O)cc2)C1)c1cccc2ccccc12 [Example 11, hydrochloride] ... 0.60

Reference source: patent US9133140B2
